For each entry below, report its melting point value.

Q: So what's the measured melting point for this one? COc1ccc(-n2c(-c3ccc(S(=O)(=O)N[C@@H](C)C(F)(F)F)cn3)c(C#N)c3cc(C(F)(F)F)cnc32)nc1 [Cpd 332]
A: 203 to 206 °C

Q: So what's the measured melting point for this one? C[C@H](NS(=O)(=O)c1ccc(-c2c(C#N)c3cc(C(F)(F)F)cnc3n2-c2ccccc2)nc1)C(F)(F)F [Cpd 318]
A: 186 to 188 °C

Q: So what's the measured melting point for this one? C[C@H](NS(=O)(=O)c1ccc(-c2c(C#N)c3cc(C(F)(F)F)cnc3n2CC2CC2)nc1)C(F)(F)F [Cpd 295]
A: 193 to 195 °C

Q: So what's the measured melting point for this one? Cc1cc2c(C#N)c(-c3ccc(S(=O)(=O)N[C@@H](C)C(F)(F)F)cn3)n(C3CCC3)c2cn1 [Cpd 165]
A: 185 to 188 °C

Q: So what's the measured melting point for this one? Cc1cc2c(cn1)c(C#N)c(-c1ncc(S(=O)(=O)NC(C)C)cn1)n2C1CCC1 [Cpd 32]
A: 242 to 243 °C

Q: So what's the measured melting point for this one? N#Cc1c(-c2ccc(S(=O)(=O)NC(CF)CF)cc2)n(C2CCC2)c2ncc(Cl)cc12 [Cpd 8]
A: 234 to 238 °C

Q: So what's the measured melting point for this one? Cc1cnc2c(c1)c(C#N)c(-c1ccc(S(=O)(=O)N[C@H](C)C(F)(F)F)cc1)n2C1CCC1 [Cpd 72]
A: 197 to 198 °C

Q: So what's the measured melting point for this one? Cc1ncc2c(C#N)c(-c3ccc(S(=O)(=O)NC(C)(C)C(F)(F)F)cc3)n(C3CCC3)c2n1 [Cpd 53]
A: 211 to 214 °C

Q: So what's the measured melting point for this one? N#Cc1c(-c2ccc(S(=O)(=O)NC3CC3)cn2)n(C2CCC2)c2cnc(Cl)cc12 [Cpd 106]
A: 170 to 172 °C

Q: So what's the measured melting point for this one? Cc1cc2c(C#N)c(-c3ccc(S(=O)(=O)N[C@H](C)C(F)(F)F)cn3)n(C3CCC3)c2cn1 [Cpd 166]
A: 195 to 198 °C

Q: So what's the measured melting point for this one? Cc1ccc2c(C#N)c(-c3ccc(S(=O)(=O)NC(CF)CF)cc3)n(C3CCC3)c2n1 [Cpd 145]
A: 182 to 193 °C

Q: So what's the measured melting point for this one? C[C@H](NS(=O)(=O)c1ccc(-c2c(C#N)c3cc(C(F)(F)F)cnc3n2-c2ccccn2)nc1)C(F)(F)F [Cpd 317]
A: 110 to 112 °C

Q: So what's the measured melting point for this one? C[C@@H](NS(=O)(=O)c1ccc(-c2c(C#N)c3cnc(Cl)cc3n2C2CCCC2)nc1)C(F)(F)F [Cpd 81]
A: 239 to 240 °C

Q: So what's the measured melting point for this one? COc1cnc2c(c1)c(C#N)c(-c1ccc(S(=O)(=O)N[C@@H](C)C(F)(F)F)c[n+]1[O-])n2C1CCC1 [Cpd 236]
A: 155 to 157 °C

Q: So what's the measured melting point for this one? Cc1ccc2c(C#N)c(-c3ccc(S(=O)(=O)NC(C)(C)C)cc3)n(C3CCC3)c2n1 [Cpd 141]
A: 194 to 200 °C

Q: So what's the measured melting point for this one? Cc1ccc2c(C#N)c(-c3ccc(S(=O)(=O)NC(C)C)cc3)n(CC3CC3)c2n1 [Cpd 5]
A: 175 to 177 °C

Q: So what's the measured melting point for this one? COc1cnc2c(c1)c(C#N)c(-c1ncc(S(=O)(=O)NC(C)C)cn1)n2C1CCC1 [Cpd 49]
A: 215 to 217 °C

Q: So what's the measured melting point for this one? Cc1ncc2c(C#N)c(-c3ccc(S(=O)(=O)N[C@H](C)C(F)(F)F)cn3)n(C3CCC3)c2n1 [Cpd 46]
A: 166 to 168 °C

Q: So what's the measured melting point for this one? COc1cnc2c(c1)c(C(N)=O)c(-c1ccc(S(=O)(=O)N[C@@H](C)C(F)(F)F)cn1)n2C1CCC1 [Cpd 226]
A: 233 to 235 °C

Q: So what's the measured melting point for this one? C[C@H](NS(=O)(=O)c1ccc(-c2c(C#N)c3cc(O)cnc3n2C2CCCC2)nc1)C(F)(F)F [Cpd 294]
A: 221 to 223 °C

Q: So what's the measured melting point for this one? N#Cc1c(-c2ncc(S(=O)(=O)NC(CF)CF)cn2)n(C2CCC2)c2ncc(F)cc12 [Cpd 16]
A: 204 to 206 °C

Q: So what's the measured melting point for this one? COc1ccc2c(n1)c(C#N)c(-c1ncc(S(=O)(=O)NC(CF)CF)cn1)n2C1CCC1 [Cpd 19]
A: 241 to 243 °C

Q: So what's the measured melting point for this one? CC1(NS(=O)(=O)c2ccc(-c3c(C#N)c4cc(C5CC5)cnc4n3C3CCC3)cc2)CC1 [Cpd 127]
A: 152 to 161 °C

Q: So what's the measured melting point for this one? COc1cnc2c(c1)c(C#N)c(-c1ncc(S(=O)(=O)N[C@@H](C)C(F)(F)F)cc1C)n2C1CCC1 [Cpd 292]
A: 180 to 183 °C

Q: So what's the measured melting point for this one? COc1ccc2c(C#N)c(-c3ccc(S(=O)(=O)NC(C)(C)C)cc3)n(C3CCC3)c2n1 [Cpd 44]
A: 155 to 157 °C

Q: So what's the measured melting point for this one? CC(C)(C)NS(=O)(=O)c1ccc(-c2c(C#N)c3cc(F)cnc3n2-c2cnccn2)nc1 [Cpd 521]
A: 245 to 247 °C

Q: So what's the measured melting point for this one? Cc1cnc2c(c1)c(C#N)c(-c1ccc(S(=O)(=O)N[C@@H](C)C(F)(F)F)cn1)n2-c1ccc(F)c(F)c1 [Cpd 505]
A: 250 to 252 °C

Q: So what's the measured melting point for this one? CC(C)NS(=O)(=O)c1cnc(-c2c(C#N)c3cccnc3n2C2CCC2)nc1 [Cpd 36]
A: 197 to 199 °C

Q: So what's the measured melting point for this one? C[C@H](NS(=O)(=O)c1ccc(-c2c(C#N)c3cc(Cl)cnc3n2CC2CC2)nc1)C(F)(F)F [Cpd 63]
A: 226 to 227 °C

Q: So what's the measured melting point for this one? COc1cnc2c(c1)c(C#N)c(-c1ccc(S(=O)(=O)NC(C)C)cc1)n2CC1CC1 [Cpd 2]
A: 151 to 153 °C

Q: So what's the measured melting point for this one? C[C@H](NS(=O)(=O)c1ccc(-c2c(C#N)c3cnc(Cl)cc3n2C2CCCC2)nc1)C(F)(F)F [Cpd 80]
A: 235 to 237 °C
